- System: DIPGX37 (H3.3 K27M diffuse intrinsic pontine glioma line)
- protocol_details: growth inhibition (% activity, log2 RLU normalised to DMSO / staurosporine); higher = more growth inhibition
- details: 33 µM
Entries annotated with measured growth inhibition
Write the answer as a number in %, unit excluded.

QUERY: Quick one: growth inhibition of `COC1=C(OC)C(=O)C(CCCCCCCCCCO)=C(C)C1=O` ?
RESULT: 3.03

###

Measured growth inhibition, listed per entry.
- System: HGGX39 (paediatric high-grade glioma line)
- protocol_details: growth inhibition (% activity, log2 RLU normalised to DMSO / staurosporine); higher = more growth inhibition
- details: 33 µM
Give the value, in units of %, as a plain number.

QUERY: Need growth inhibition of Cc1cccc(C)c1NC(=O)C1CCCCN1C (stereo unspecified) , thanks.
RESULT: 1.51

QUERY: I am curious: what growth inhibition value has been reported for `CO[C@H]1C(=O)[C@]2(C)[C@@H](OC)C[C@H]3OC[C@@]3(OC(C)=O)[C@H]2[C@H](OC(=O)c2ccccc2)[C@]2(O)C[C@H](OC(=O)[C@H](O)[C@@H](NC(=O)OC(C)(C)C)c3ccccc3)C(C)=C1C2(C)C` ?
RESULT: 26.1

QUERY: Sample `Cn1c(CNc2ccc(C(=N)N)cc2)nc2cc(C(=O)N(CCC(=O)O)c3ccccn3)ccc21` — what was its growth inhibition?
RESULT: 2.01

***
QUERY: // query growth inhibition value for entry `NC(=O)CC[C@H](N)C(=O)O`
RESULT: -0.498

QUERY: Please look up its growth inhibition: `CNS(=O)(=O)CCc1ccc2[nH]cc(C3CCN(C)CC3)c2c1`
RESULT: 1.37

QUERY: May I ask what growth inhibition has been recorded for `CC(C)(Sc1cc(C(C)(C)C)c(O)c(C(C)(C)C)c1)Sc1cc(C(C)(C)C)c(O)c(C(C)(C)C)c1` ?
RESULT: -0.682

QUERY: Endpoint output: growth inhibition of `CC(C)OC(=O)C(C(=O)OC(C)C)=C1SC=CS1` . Value?
RESULT: 8.43

###

Parameter growth inhibition: see the listing below.
- System: HGGX39
- protocol_details: growth inhibition (% activity, log2 RLU normalised to DMSO / staurosporine); higher = more growth inhibition
- details: 33 µM
Give just the number in %; leave the unit off.

QUERY: Entry under review: `O=C1O[C@H]([C@@H](O)CO)C(O)=C1O` . Reported growth inhibition?
RESULT: 1.99

QUERY: Fill in the blank: the reported growth inhibition of `COc1ccc2cccc(CCNC(C)=O)c2c1` is ____.
RESULT: -1.63

QUERY: GET /values?readout=growth inhibition&item= CC(NC(=O)Cc1cc(F)cc(F)c1)C(=O)NC(C(=O)OC(C)(C)C)c1ccccc1 (centres undefined)
RESULT: 1.42

QUERY: Fill blank: measured growth inhibition of the compound `Cc1cnc(C(=O)O)c[n+]1[O-]` is ____.
RESULT: 1.15

QUERY: Can you share its growth inhibition? I mean this compound: `CC(C)(C)c1cc(C(C)(C)C)c(NC(=O)c2c[nH]c3ccccc3c2=O)cc1O`
RESULT: 22.4

More entries:
QUERY: Name the reported growth inhibition value associated with the compound `CCCCCCNC(=O)n1cc(F)c(=O)[nH]c1=O`
RESULT: 6.44

QUERY: Which growth inhibition reading was recorded for the compound `O=NN(CCCl)C(=O)NC1CCCCC1` ?
RESULT: 2.6

QUERY: State the recorded growth inhibition for this entry: `CCC(=O)OCC(=O)[C@@]1(OC(=O)CC)[C@@H](C)C[C@H]2[C@@H]3CCC4=CC(=O)C=C[C@]4(C)[C@@]3(Cl)[C@@H](O)C[C@@]21C`
RESULT: 3.24

QUERY: Look at this compound and give its reported growth inhibition. `Cc1nc2n(c(=O)c1CCN1CCC(c3noc4cc(F)ccc34)CC1)CCCC2`
RESULT: 3.29

QUERY: Need growth inhibition, item `COC(=O)C1=C(C)NC(C)=C(C(=O)OC)C1c1ccccc1[N+](=O)[O-]`
RESULT: -0.258

QUERY: What does the record list as growth inhibition for `OCCN(CCO)c1nc(N2CCCCC2)c2nc(N(CCO)CCO)nc(N3CCCCC3)c2n1` ?
RESULT: 2.38

QUERY: Give the measured growth inhibition of COC(=O)C1=C(C)NC(C)=C(C(=O)OC(C)C)C1c1cccc2nonc12 (centres undefined) .
RESULT: -6.2

QUERY: What value of growth inhibition has been recorded for this entry: `Clc1ccc2nsnc2c1NC1=NCCN1`
RESULT: -0.915

QUERY: Item under review: `CC(C)C[C@H](NC(=O)[C@H](CCc1ccccc1)NC(=O)CN1CCOCC1)C(=O)N[C@@H](Cc1ccccc1)C(=O)N[C@@H](CC(C)C)C(=O)[C@@]1(C)CO1` . Reported growth inhibition?
RESULT: 51.3

QUERY: Which growth inhibition is reported for this compound? `NC(=O)c1ncn([C@@H]2O[C@H](CO)[C@@H](O)[C@H]2O)c1O`
RESULT: 1.1

QUERY: Entry under review: `C=CC[C@@H]1/C=C(\C)C[C@H](C)C[C@H](OC)[C@H]2O[C@@](O)(C(=O)C(=O)N3CCCC[C@H]3C(=O)O[C@H](/C(C)=C/[C@@H]3CC[C@@H](O)[C@H](OC)C3)[C@H](C)[C@@H](O)CC1=O)[C@H](C)C[C@@H]2OC` . Reported growth inhibition?
RESULT: 9.14

QUERY: Query (compound): `CCN1CCN(C(=O)N[C@@H](C(=O)N[C@@H]2C(=O)N3[C@@H]2SC(C)(C)[C@@H]3C(=O)O)c2ccccc2)C(=O)C1=O` ; field requested: growth inhibition
RESULT: -0.282

QUERY: Returns the measured growth inhibition for the input compound. Input: `C[C@@H]1CC(=O)NN=C1c1ccc(NN=C(C#N)C#N)cc1`
RESULT: 4.26

QUERY: Reported growth inhibition, compound CCCNC(C)C(=O)Nc1c(C)csc1C(=O)OC (centres undefined) : ____
RESULT: 3.43
